meta.source: patent US8710045B2

Readings of EC50 for the listed compounds
- System: PKA-phosphorylated RyR2 (Homo sapiens, UniProt Q92736)
- Sequence (Q92736 whole entry): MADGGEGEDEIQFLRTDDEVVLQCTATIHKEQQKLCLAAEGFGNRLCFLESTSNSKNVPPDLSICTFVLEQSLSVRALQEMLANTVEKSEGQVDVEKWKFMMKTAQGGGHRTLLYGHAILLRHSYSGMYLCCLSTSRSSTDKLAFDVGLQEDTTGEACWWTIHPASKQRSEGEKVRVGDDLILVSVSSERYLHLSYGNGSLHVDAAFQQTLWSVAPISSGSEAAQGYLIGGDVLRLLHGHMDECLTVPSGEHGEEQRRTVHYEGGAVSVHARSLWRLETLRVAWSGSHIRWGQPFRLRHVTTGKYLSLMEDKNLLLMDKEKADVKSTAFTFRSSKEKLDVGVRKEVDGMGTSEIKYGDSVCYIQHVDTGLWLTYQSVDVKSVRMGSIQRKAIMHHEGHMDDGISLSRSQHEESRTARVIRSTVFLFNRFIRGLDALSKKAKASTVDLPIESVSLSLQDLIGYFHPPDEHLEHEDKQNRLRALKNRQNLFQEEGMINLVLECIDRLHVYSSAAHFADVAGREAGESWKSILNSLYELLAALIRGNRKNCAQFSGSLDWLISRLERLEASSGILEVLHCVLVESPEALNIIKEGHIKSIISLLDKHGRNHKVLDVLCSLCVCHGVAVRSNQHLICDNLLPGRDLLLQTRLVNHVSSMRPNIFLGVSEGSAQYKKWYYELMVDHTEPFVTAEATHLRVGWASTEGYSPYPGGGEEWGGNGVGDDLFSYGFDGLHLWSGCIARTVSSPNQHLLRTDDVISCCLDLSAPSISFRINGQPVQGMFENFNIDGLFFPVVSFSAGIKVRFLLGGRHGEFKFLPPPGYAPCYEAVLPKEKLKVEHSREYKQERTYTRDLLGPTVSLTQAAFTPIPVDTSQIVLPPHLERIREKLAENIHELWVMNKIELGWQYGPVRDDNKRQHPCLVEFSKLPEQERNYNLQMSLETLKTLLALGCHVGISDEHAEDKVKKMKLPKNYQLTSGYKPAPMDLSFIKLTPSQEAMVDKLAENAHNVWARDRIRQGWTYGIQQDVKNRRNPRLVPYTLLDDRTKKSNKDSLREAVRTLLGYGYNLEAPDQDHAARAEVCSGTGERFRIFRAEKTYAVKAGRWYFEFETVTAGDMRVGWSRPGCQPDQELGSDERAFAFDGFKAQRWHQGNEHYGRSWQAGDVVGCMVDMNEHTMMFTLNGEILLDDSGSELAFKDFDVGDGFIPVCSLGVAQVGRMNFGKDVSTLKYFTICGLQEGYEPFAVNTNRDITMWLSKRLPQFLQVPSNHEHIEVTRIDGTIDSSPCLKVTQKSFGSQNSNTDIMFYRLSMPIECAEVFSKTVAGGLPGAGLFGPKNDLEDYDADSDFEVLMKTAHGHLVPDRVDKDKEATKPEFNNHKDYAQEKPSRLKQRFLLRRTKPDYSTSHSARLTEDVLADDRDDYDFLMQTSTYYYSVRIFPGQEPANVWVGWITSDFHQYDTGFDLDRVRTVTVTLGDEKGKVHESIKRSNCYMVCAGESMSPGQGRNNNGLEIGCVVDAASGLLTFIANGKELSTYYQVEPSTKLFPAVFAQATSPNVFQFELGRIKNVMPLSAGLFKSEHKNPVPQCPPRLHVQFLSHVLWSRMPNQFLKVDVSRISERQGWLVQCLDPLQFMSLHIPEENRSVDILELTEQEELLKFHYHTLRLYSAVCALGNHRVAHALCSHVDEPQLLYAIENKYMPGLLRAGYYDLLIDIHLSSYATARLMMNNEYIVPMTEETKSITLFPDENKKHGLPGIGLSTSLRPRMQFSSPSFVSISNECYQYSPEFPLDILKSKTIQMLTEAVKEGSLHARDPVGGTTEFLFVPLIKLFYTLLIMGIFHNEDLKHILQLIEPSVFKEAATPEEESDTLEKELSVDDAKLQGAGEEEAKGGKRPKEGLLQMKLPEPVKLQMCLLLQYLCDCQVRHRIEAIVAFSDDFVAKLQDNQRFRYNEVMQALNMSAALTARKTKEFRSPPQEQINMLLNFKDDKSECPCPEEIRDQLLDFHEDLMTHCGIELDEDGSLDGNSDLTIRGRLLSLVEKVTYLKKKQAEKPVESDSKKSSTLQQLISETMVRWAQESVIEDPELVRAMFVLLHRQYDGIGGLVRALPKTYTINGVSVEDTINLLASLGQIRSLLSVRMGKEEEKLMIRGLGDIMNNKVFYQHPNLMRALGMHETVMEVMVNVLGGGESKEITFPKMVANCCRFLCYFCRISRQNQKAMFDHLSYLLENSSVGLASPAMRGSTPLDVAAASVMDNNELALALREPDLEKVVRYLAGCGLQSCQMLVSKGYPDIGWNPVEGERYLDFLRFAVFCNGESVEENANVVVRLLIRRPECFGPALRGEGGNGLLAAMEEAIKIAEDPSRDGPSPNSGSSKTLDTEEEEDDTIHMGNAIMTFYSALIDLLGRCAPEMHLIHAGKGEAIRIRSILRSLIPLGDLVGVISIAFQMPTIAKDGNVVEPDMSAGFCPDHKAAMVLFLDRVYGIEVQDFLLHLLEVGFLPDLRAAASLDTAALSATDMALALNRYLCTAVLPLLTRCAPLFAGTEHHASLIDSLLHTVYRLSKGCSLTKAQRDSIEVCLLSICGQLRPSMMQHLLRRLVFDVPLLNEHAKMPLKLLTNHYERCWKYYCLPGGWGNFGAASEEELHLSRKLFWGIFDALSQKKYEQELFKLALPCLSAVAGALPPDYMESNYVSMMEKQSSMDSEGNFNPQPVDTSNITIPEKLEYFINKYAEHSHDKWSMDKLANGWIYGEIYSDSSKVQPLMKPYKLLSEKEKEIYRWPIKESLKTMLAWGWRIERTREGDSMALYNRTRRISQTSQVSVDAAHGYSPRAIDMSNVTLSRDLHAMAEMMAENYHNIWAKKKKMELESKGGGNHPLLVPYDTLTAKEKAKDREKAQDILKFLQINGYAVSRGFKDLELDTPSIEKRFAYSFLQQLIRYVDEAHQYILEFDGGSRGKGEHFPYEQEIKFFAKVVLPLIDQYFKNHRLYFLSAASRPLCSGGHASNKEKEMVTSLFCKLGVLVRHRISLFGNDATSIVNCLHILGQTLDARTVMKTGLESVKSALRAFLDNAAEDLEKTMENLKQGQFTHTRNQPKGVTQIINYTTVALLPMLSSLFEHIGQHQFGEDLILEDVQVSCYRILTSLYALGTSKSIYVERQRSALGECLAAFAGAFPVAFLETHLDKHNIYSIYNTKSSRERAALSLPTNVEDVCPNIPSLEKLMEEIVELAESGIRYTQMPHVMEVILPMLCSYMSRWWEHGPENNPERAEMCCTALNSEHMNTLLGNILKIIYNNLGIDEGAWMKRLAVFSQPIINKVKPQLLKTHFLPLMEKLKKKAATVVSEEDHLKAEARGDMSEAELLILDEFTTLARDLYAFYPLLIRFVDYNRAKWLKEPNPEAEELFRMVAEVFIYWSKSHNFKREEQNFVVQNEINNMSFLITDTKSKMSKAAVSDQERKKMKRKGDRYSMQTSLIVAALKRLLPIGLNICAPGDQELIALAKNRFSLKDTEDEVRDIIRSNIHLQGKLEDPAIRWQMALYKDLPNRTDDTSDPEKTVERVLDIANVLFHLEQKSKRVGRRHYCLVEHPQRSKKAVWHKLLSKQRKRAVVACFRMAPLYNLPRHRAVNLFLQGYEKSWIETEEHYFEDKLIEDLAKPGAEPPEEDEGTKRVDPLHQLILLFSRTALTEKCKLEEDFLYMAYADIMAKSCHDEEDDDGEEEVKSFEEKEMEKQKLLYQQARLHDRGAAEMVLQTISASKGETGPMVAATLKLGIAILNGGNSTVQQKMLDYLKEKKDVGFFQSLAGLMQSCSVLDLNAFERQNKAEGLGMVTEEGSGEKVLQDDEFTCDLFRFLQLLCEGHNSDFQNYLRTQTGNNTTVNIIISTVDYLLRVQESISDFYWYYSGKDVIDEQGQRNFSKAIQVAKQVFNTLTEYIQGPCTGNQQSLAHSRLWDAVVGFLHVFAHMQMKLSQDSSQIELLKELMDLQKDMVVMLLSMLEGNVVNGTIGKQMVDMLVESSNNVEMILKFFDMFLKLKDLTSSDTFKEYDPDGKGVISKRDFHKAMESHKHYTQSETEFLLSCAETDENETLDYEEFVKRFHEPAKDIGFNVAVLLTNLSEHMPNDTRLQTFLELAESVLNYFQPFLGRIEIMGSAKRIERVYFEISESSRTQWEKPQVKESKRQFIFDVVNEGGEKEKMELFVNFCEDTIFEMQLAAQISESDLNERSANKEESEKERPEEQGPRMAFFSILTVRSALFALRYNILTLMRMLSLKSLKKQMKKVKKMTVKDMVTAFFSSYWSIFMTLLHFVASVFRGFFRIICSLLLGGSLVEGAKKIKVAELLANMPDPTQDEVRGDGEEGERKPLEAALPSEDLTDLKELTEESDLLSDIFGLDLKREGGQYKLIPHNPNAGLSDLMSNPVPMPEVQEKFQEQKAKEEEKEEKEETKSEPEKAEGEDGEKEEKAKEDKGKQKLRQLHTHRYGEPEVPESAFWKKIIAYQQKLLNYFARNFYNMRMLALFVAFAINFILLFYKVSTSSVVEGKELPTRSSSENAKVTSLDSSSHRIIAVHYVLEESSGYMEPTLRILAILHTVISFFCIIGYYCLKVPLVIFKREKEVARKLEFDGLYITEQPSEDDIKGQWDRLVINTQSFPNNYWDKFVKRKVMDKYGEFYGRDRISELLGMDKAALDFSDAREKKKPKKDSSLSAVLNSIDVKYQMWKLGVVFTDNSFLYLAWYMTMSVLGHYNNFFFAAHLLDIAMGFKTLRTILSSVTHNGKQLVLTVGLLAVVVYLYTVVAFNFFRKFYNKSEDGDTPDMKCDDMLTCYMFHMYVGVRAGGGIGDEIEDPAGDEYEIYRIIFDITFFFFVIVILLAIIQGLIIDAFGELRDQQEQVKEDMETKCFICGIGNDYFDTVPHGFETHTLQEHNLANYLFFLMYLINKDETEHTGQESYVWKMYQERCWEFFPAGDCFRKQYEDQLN
- Sequence (P68106 whole entry partner): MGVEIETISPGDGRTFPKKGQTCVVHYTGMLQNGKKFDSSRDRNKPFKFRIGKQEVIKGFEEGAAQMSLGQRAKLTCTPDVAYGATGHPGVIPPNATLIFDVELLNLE
- Measurement Protocol: FKBP12.6 rebinding assay: FKBP12.6 binding to PKA-phosphorylated RyR2 in cardiac SR
- Condition Description: compound 0.5-1000 nM; Michaelis-Menten curve fitting
Quantity: EC50 (nM)

| Compound | Quantity | Measure Unit | Result Value |
| --- | --- | --- | --- |
| COc1ccc2c(c1)CN(S(C)(=O)=O)CCS2 [S4] | EC50 | nM | 102 |
| COc1ccc2c(c1)CN(C(=O)NCc1ccccc1)CCS2 [S49] | EC50 | nM | 81 |
| COc1ccc2c(c1)CN(C(=O)NO)CCS2 [S51] | EC50 | nM | 175 |
| CCN(CC)C(=O)C(=O)N1CCSc2ccc(OC)cc2C1 [S59] | EC50 | nM | 102 |
| COc1ccc2c(c1)CN(C(=O)N1CCN(c3ccccc3)CC1)CCS2 [S53] | EC50 | nM | 200 |
| CCN(CC)C(=O)N1CCSc2ccc(OC)cc2C1 [S48] | EC50 | nM | 100 |
| COc1ccc2c(c1)CN(C(=O)CCN1CCC(Cc3ccc(N)cc3)CC1)CCS2 [S60] | EC50 | nM | 68 |
| COc1ccc2c(c1)CN(C(=O)CCN1CCC(Cc3ccc(N=[N+]=[N-])cc3N=[N+]=[N-])CC1)CCS2 [S63] | EC50 | nM | 52 |
| O=C(N1CCN(Cc2ccc3c(c2)OCO3)CC1)N1CCSc2ccccc2C1 [S101] | EC50 | nM | 105 |
| O=C(N1CCCCC1)N1CCSc2ccccc2C1 [S102] | EC50 | nM | 135 |

---

- System: hERG (Homo sapiens)
- Measurement Protocol: hERG current, PatchXpress 7000A automatic parallel patch clamp in hERG-transfected HEK 293 cells (Example 6)
- Condition Description: human, HEK 293 cells stably transfected with hERG cDNA, Mean % hERG Inhibition, 10 μM
Listed molecules paired with reported inhibition at 5 min, 10 µM

| Compound Smiles | inhibition at 5 min, 10 µM / % |
| --- | --- |
| CCN(CC)C(=O)N1CCSc2ccc(OC)cc2C1 | 14 |
| CCN(CC)C(=O)N1CCSc2ccccc2C1 | 16 |
| O=C(N1CCN(Cc2ccc3c(c2)OCO3)CC1)N1CCSc2ccccc2C1 | 65.8 |
| COc1ccc2c(c1)CN(C(=O)N1CCNCC1)CCS2 | 30.3 |
| O=C(N1CCNCC1)N1CCSc2ccccc2C1 | 29.2 |
| COc1ccc2c(c1)CNCCS2 | 58.3 |
| COC(=O)C(=O)N1CCSc2ccccc2C1 | 11.2 |

---

- System: hERG (Homo sapiens)
- Measurement Protocol: hERG current, PatchXpress 7000A automatic parallel patch clamp in hERG-transfected HEK 293 cells (Example 6)
- Condition Description: human, HEK 293 cells stably transfected with hERG cDNA, Mean % hERG Inhibition, 0.1 μM
So basically: inhibition at 5 min, 0.1 µM at 4% or higher? That is met. Lower than 4%? That is not met.

| Compound Smiles | Class Assignment |
| --- | --- |
| CCN(CC)C(=O)N1CCSc2ccccc2C1 | not met |
| COc1ccc2c(c1)CN(C(=O)N1CCNCC1)CCS2 | met |
| COC(=O)C(=O)N1CCSc2ccccc2C1 | not met |
| O=C(N1CCNCC1)N1CCSc2ccccc2C1 | not met |
| CCN(CC)C(=O)N1CCSc2ccc(OC)cc2C1 | not met |
| COc1ccc2c(c1)CNCCS2 | met |
| O=C(N1CCN(Cc2ccc3c(c2)OCO3)CC1)N1CCSc2ccccc2C1 | met |

---

- System: hERG (Homo sapiens)
- Measurement Protocol: hERG current, manual whole-cell patch clamp in hERG-transfected HEK 293 cells (Example 5)
- Assay type: cell-based
- Parameters: expressed in transfected cells; host or cells: HEK 293
- Condition Description: human, HEK 293 cells stably transfected with hERG cDNA, highest concentration tested (100 μM); read-out: hERG current inhibition at the highest concentration tested
Quantity: inhibition at 100 µM

| Compound Smiles | System | Quantity | Result Value |
| --- | --- | --- | --- |
| COc1ccc2c(c1)CN(C(=O)C(=O)O)CCS2 | hERG (Homo sapiens) | inhibition at 100 µM | < 50% |

---

- System: hERG (Homo sapiens, UniProt Q12809)
- Measurement Protocol: hERG current, PatchXpress 7000A automatic parallel patch clamp in hERG-transfected HEK 293 cells (Example 6)
- Condition Description: human, HEK 293 cells stably transfected with hERG cDNA, Individual Data (% Inhibition), 0.1 μM, single cell

| Compound | System | inhibition at 5 min, 0.1 µM / % |
| --- | --- | --- |
| CCN(CC)C(=O)N1CCSc2ccc(OC)cc2C1 [S48] | hERG (Homo sapiens, UniProt Q12809) | 4.2 |
| COc1ccc2c(c1)CN(C(=O)N1CCNCC1)CCS2 [S64] | hERG (Homo sapiens, UniProt Q12809) | 9.9 |
| CCN(CC)C(=O)N1CCSc2ccccc2C1 [S75] | hERG (Homo sapiens, UniProt Q12809) | 2.6 |
| O=C(N1CCNCC1)N1CCSc2ccccc2C1 [S103] | hERG (Homo sapiens, UniProt Q12809) | 4.2 |
| O=C(N1CCN(Cc2ccc3c(c2)OCO3)CC1)N1CCSc2ccccc2C1 [S101] | hERG (Homo sapiens, UniProt Q12809) | 5.1 |
| COc1ccc2c(c1)CNCCS2 [S26] | hERG (Homo sapiens, UniProt Q12809) | 12.3 |

---

- System: hERG current (Homo sapiens, UniProt Q12809)
- Measurement Protocol: hERG current, PatchXpress 7000A automatic parallel patch clamp in hERG-transfected HEK 293 cells (Example 6)
- Condition Description: 0.1 μM
Decide using Mean % hERG Inhibition alone. Strictly below 5%: Condition met. Equal to or above 5%: Condition not met.

| Compound Smiles | System | Class Assignment |
| --- | --- | --- |
| COc1ccc2c(c1)CN(C(=O)N1CCN(Cc3ccc4c(c3)OCO4)CC1)CCS2 | hERG current (Homo sapiens, UniProt Q12809) | Condition not met |
| O=C(N1CCCCC1)N1CCSc2ccccc2C1 | hERG current (Homo sapiens, UniProt Q12809) | Condition met |
| COC(=O)C(=O)N1CCSc2ccc(OC)cc2C1 | hERG current (Homo sapiens, UniProt Q12809) | Condition not met |
| COc1ccc2c(c1)CN(C(=O)C(=O)O)CCS2(=O)=O | hERG current (Homo sapiens, UniProt Q12809) | Condition met |

---

Quick reference for pEC50 among some compounds
- System: PKA-phosphorylated RyR2 (Homo sapiens, UniProt Q92736)
- Measurement Protocol: FKBP12.6 rebinding assay: FKBP12.6 binding to PKA-phosphorylated RyR2 in cardiac SR
- Condition Description: compound 0.5-1000 nM; Michaelis-Menten curve fitting
pEC50: −log10 of the molar value.

| Compound Smiles | pEC50 |
| --- | --- |
| c1ccc2c(c1)CNCCS2 | ~7.00 |
| C=CC(=O)N1CCSc2ccc(OC)cc2C1 | ~7.30 |
| COc1ccc2c(c1)CN(C(=O)CCN1CCC(Cc3ccc(N)cc3N)CC1)CCS2 | 7.02 |
